The entries below are paired with their reported pEC50.
# System: Hsp70
# assayOverview: Hsp70 ELISA assay: Hsp70 induction in Ramos B lymphoma cells
# Format: cell-based
# testConditions: Homo sapiens; Ramos B lymphoma cells treated at 10, 50, 250 and 1250 nM for 5 h; whole culture lysate, Hsp70 ELISA; read-out: ED50 (Hsp70 induction)
pEC50: −log10 of the molar value.

Worked cases, answers included:
COc1ccc(OC)c(C(=[Se])N(C)NC(=O)CC(=O)NN(C)C(=[Se])c2cc(OC)ccc2OC)c1 [Compound 12] :: < 5.90
CO/N=C(\c1ccccc1)N(C)NC(=O)CC(=O)NN(C)/C(=N/OC)c1ccccc1 [Compound 10] :: < 5.90
CN(NC(=O)CS(=O)(=O)NN(C)C(=[Se])c1ccccc1)C(=[Se])c1ccccc1 [Compound 14] :: < 5.90
CN(NC(=O)CC(=O)NN(C)C(=[Se])c1ccccc1)C(=[Se])c1ccccc1 [Compound 1] :: 7.15
CN(NC(=O)CC(=O)NN(C)/C(=N/O)c1ccccc1)/C(=N/O)c1ccccc1 [Compound 11] :: < 5.90

// next item, pEC50 requested
Query string: Give measured pEC50 for CNN=C(C(=O)NN(C)C(=[Se])c1ccccc1)C(=O)NN(C)C(=[Se])c1ccccc1 [Compound 13] (Hsp70).
Result string: < 5.90
